Listing: pEC50 of selected molecules
Tested on: RSV A2 strain
Assay: In vitro CPE (CytoPathic Effect) inhibition effect evaluation test, RSV type A
Format: cell-based
Settings: human respiratory syncytial virus; inhibitory effect against RSV type A (RSV A2 strain), HEp-2 cells, CPE inhibition; read-out: EC50
pEC50: −log10 of the molar value.
measuredMetric: pEC50

molecule="COCC(C)n1cc(-c2ncc(C(=O)NC3(C(=O)O)C4CC5CC(C4)CC3C5)c(C(F)(F)F)n2)c2ccc(OC3CCN(c4ncc(F)cn4)CC3)cc21 (racemic)" assayvalue="> 8.00"
molecule="O=C(NC1(C(=O)O)C2CC3CC(C2)CC1C3)c1cnc(N2CC3(CCCC3)c3cc(OC4CCN(CC(F)(F)F)CC4)ccc32)nc1C(F)(F)F (stereo not drawn)" assayvalue="> 8.00"
molecule=O=C(NC1(C(=O)O)CCCCC1)c1cnc(N2CC3(CCOCC3)c3cc(OC4CCN(c5ncccn5)CC4)ccc32)nc1C(F)(F)F assayvalue="> 8.00"
molecule="O=C(NC1(C(=O)O)C2CC3CC(C2)CC1C3)c1ccc(-c2cn(C3CCC(F)(F)CC3)c3cc(O[C@H]4CC[C@@H](N5CC(F)(F)C5)CC4)ccc23)nc1C(F)(F)F (stereo partly drawn)" assayvalue="> 8.00"
molecule="CC(F)(F)c1nc(N2CC3(CCOCC3)c3cc(OC4CCN(CC(F)F)CC4)ccc32)ncc1C(=O)NC1(C(=O)O)C2CC3CC(C2)CC1C3 (stereo not drawn)" assayvalue="> 8.00"
molecule=COCCCCOc1ccc2c(c1C)CCN2c1ncc(C(=O)NC2(C(=O)O)CCCCC2)c(C(F)(F)F)n1 assayvalue="7.00 to 8.00"
